experimental_system: AMPA receptor
experimental_details: in vitro receptor affinity test: inhibition of specific binding of ^3 H-AMPA
Parameters: species or system male Wistar rats (cerebral cortex)
condition_parameters: rat cerebral cortex membranes; ^3 H-AMPA 5 nM; 30 minutes at 2° C.; 30 mM Tris-HCl, 2.5 mM CaCl2, 100 mM KSCN, pH 7.4; read-out: IC50 (the concentration (μM) of the test substance which inhibits the specific binding of ^3 H-AMPA by 50%)
metric_name: IC50 (µM)

compound	IC50 (µM)
CN1CCc2c(-c3ccc(S(=O)(=O)N(C)C)cc3)cc3c(c2C1)NC(=O)C3=NOC1CCOC1=O (stereo not drawn)	0.15

(a) CN1CCc2c(-c3ccc(S(=O)(=O)N(C)C)cc3)cc3c(c2C1)NC(=O)C3=NOC(CCO)C(=O)O (stereo not drawn)
(b) CCOC(=O)CON=C1C(=O)Nc2c1cc(-c1ccc(S(=O)(=O)N(C)C)cc1)c1c2CN(C)CC1
QUERY: # min-compare on IC50 between a and b When you have decided, please share the label of that item.
RESULT: a
(a: 0.05 µM, b: 0.1 µM)
